Target: Cbl-b (Homo sapiens, UniProt Q13191)
Sequence (Q13191 36-427): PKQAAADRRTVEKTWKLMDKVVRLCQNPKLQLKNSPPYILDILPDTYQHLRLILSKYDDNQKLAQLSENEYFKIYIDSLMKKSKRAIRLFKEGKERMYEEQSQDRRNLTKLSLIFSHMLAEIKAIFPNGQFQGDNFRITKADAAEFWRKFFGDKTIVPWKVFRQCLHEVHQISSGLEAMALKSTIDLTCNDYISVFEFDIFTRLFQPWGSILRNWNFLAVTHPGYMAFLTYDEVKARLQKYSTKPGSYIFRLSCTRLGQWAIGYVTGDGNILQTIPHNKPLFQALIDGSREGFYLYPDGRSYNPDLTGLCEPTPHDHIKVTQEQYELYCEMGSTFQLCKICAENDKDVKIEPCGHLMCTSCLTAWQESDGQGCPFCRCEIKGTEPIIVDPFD
Test: Cbl-b activity assay (Cbl-b inhibition assay), TR-FRET of Cbl-b interaction with UbcH5B-Ub
Format: biochemical
Conditions: assay buffer with 100 mM NaCl, 60 nM Src kinase; read-out: Cbl-b activity IC50
recorded_endpoint: IC50

molecule="COc1ccc(C(C)Sc2nncn2C)cc1NC(=O)c1ccc2ccccc2n1 (stereo not drawn)" recorded_endpoint=IC50 result="1000 to 3000 nM"
molecule=CCCOc1cc([C@H](C)Cc2nncn2C)cc(N2Cc3c(cccc3C(F)(F)F)C2=O)n1 recorded_endpoint=IC50 result="301 to 1000 nM"

Query (molecule): C[C@H](Cc1nncn1C)c1cccc(NC(=O)c2nc3c(C(F)(F)F)cccc3[nH]2)c1 ; field requested: IC50
< 100 nM
